Task for the reader: assign each of the following binders its reported IC50 neutralization, 18 hour virus/Ab incubation.
molecular target: HIV-1 94UG103 Env (HIV-1 strain 94UG103); test: cell-based or functional assay

Incoming: Fill blank: measured IC50 neutralization, 18 hour virus/Ab incubation of the binder 1460_G14 (PGG14) (antibody, human IgG1, kappa, V domains shown) VH: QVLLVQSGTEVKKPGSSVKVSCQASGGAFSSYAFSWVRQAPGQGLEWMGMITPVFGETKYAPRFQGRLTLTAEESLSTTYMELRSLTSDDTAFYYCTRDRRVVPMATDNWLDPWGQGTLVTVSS VL: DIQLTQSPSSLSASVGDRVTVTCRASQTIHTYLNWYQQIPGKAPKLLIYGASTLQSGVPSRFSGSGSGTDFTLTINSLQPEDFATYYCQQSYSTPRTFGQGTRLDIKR is ____.
Outgoing: > 50 µg/mL

Incoming: Fill blank: measured IC50 neutralization, 18 hour virus/Ab incubation of the binder 1495_C14 (PGC14) (antibody, human IgG1, lambda, V domains shown) VH: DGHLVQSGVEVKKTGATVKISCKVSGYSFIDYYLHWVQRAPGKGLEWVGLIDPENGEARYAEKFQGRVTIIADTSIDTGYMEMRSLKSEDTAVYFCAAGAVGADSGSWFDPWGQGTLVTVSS VL: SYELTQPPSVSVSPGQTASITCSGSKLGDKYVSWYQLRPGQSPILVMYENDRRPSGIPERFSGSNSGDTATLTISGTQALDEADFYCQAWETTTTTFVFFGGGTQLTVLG is ____.
Outgoing: > 50 µg/mL

Shift focus to the following entry.
Incoming: Fill blank: measured IC50 neutralization, 18 hour virus/Ab incubation of the binder 1456_P20 (PG20) (antibody, human IgG1, kappa, V domains shown) VH: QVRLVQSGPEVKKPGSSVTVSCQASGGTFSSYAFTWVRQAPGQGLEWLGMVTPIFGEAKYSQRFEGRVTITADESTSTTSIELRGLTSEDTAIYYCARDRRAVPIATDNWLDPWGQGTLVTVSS VL: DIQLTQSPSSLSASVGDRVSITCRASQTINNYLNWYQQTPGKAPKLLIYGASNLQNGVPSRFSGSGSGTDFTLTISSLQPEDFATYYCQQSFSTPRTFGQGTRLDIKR is ____.
Outgoing: > 50 µg/mL
